Target: UniProtKB P04585
Test: biochemical
Settings: Table I; Dose 0.370 μM; read-out: Protease % Inhib
metricName: inhibition at 0.37 µM (%)

{"compound": "Cn1ccnc1S(=O)(=O)Nc1cccc(C(c2c(O)cc(C(CC3CC3)CC3CC3)oc2=O)C2CC2)c1 (centres unmarked) [Example 100]", "valueUnits": "%", "dataValue": 101}
{"compound": "CC[C@H](Cc1ccccc1)c1cc(O)c(C(c2cccc(NS(=O)(=O)c3cn(C)cn3)c2)C2CC2)c(=O)o1 (single isomer, unassigned) [Example 138]", "valueUnits": "%", "dataValue": 95.5}
{"compound": "CC[C@H](Cc1ccccc1)c1cc(O)c(C(c2cccc(NS(=O)(=O)c3nc4ccccc4[nH]3)c2)C2CC2)c(=O)o1 (some centres unmarked) [Example 146]", "valueUnits": "%", "dataValue": 87.4}
{"compound": "CC(C)CC(c1cccc(NS(=O)(=O)c2cn(C)cn2)c1)c1c(O)c2c(oc1=O)CCCCCC2 (single isomer, unassigned) [Example 8]", "valueUnits": "%", "dataValue": 110}
{"compound": "CC(C)CC(c1cccc(NS(=O)(=O)c2cn(C)cn2)c1)c1c(O)c2c(oc1=O)CCCCCC2 (single isomer, unassigned) [Example 9]", "valueUnits": "%", "dataValue": 104}
{"compound": "CCC(CCBr)c1cc(O)c(C(c2cccc(NS(=O)(=O)c3cn(C)cn3)c2)C2CC2)c(=O)o1 (centres unmarked) [Example 108]", "valueUnits": "%", "dataValue": 102}
{"compound": "CCCC1(CCC)CC(O)=C(C(CC)c2cccc(NS(=O)(=O)c3cn(C)cn3)c2)C(=O)O1 (centres unmarked) [Example 44]", "valueUnits": "%", "dataValue": 114}
{"compound": "CCCCCC1(CCCCC)CC(O)=C(C(CC)c2cccc(NS(=O)(=O)c3ccc(C#N)cc3)c2)C(=O)O1 (centres unmarked) [Example 64]", "valueUnits": "%", "dataValue": 50.8}
{"compound": "CCC(CC1CCCOC1)c1cc(O)c(C(c2cccc(NS(=O)(=O)c3cccc4cccnc34)c2)C2CC2)c(=O)o1 (centres unmarked) [Example 145A]", "valueUnits": "%", "dataValue": 111}
{"compound": "Cn1cnc(S(=O)(=O)Nc2cccc(C(C3=C(O)CC(CCC4CC4)(CCC4CC4)OC3=O)C(C)(C)C)c2)c1 (centres unmarked) [Example 264]", "valueUnits": "%", "dataValue": 75}
{"compound": "CCCC1(CCC)CC(O)=C(C(CC)c2cccc(NS(=O)(=O)c3cccc4cccnc34)c2)C(=O)O1 (centres unmarked) [Example 43]", "valueUnits": "%", "dataValue": 99}
{"compound": "CCCC1(CCc2ccccc2)CC(O)=C(C(c2cccc(NS(=O)(=O)c3cn(C)cn3)c2)C2CC2)C(=O)O1 (centres unmarked) [Example 61]", "valueUnits": "%", "dataValue": 95.5}
{"compound": "CC[C@H](Cc1ccccc1)c1cc(O)c(C(c2cccc(NS(=O)(=O)c3ncc[nH]3)c2)C2CC2)c(=O)o1 (some centres unmarked) [Example 147]", "valueUnits": "%", "dataValue": 103}
{"compound": "CCCC1(CCC)CC(O)=C(C(CC)c2cccc(NS(=O)(=O)c3ccc(F)cc3)c2)C(=O)O1 (centres unmarked) [Example 45]", "valueUnits": "%", "dataValue": 94.4}
